Tested on: LOX IMVI melanoma
Assay details: NCI-60 one-dose screen, 48 h
Experimental conditions: 10 µM unless noted
The panel holds about 83,000 compounds, 20% with a hit somewhere; the sample as a whole holds those more often. Calls of active or inactive are those of the source. The calls were made as follows: active = growth percent below 10; inactive = the rest.
Select the matching outcome among 1 (active), -1 (inactive)

Write down the call the test reported for this molecule. Item: COc1cc2nccc(Oc3ccc(NC(=O)C4(C(=O)Nc5c(F)cc(F)cc5F)CC4)cc3)c2cc1Oc1ccc(N)cn1
-1

Please share the test call associated with CCCCCCCCCC1=NC(C)(C)CN1C(C)(C)CO .
-1

Name the outcome recorded for COc1ccc(C2C3=C(COC3=O)N(CCO)c3cc(OC)c(OC)cc32)cc1 (centres undefined) in the assay.
-1

Please let me know the test result on file for CC1=C(O)C(=O)C(c2c(C)cc(C)c(Br)c2C)=C(O)C1=O .
-1

Outcome? Cc1cc(C)c([O-])c(CN(C)CCN(C)Cc2cc(C)cc(C)c2[O-])c1.O=C([O-])c1cccc(C(=O)[O-])n1.[Ti+4]
1

Called result for COc1ccc(-c2nsc3c2NC(=O)CC3c2ccc3c(c2)OCO3)cc1 (centres undefined)
-1

What did the test return for CC(=O)N1N=C(c2ccc(C)cc2)CC1c1cn(-c2ccccc2)nc1-c1cccc(Nc2ccnc3cc(Cl)ccc23)c1 (centres undefined) ?
-1

Please share the test call associated with CC1=C(C(=O)Nc2ccc(F)cc2)C(c2ccccc2)C2=C(CC(C)(C)CC2=O)N1 (centres undefined) .
-1

What outcome does the record of this test show for CCCc1n(Cc2ccc3ccccc3c2)c2ccccc2[n+]1Cc1ccc2ccccc2c1 ?
1

Called result for O=C(O)Cn1ccc2ccccc21
-1

What was the test verdict on CCNS(=O)(=O)c1ccc(C)cc1 ?
-1

Please state the recorded outcome for this molecule: N#Cc1c(N)c(C(=O)c2ccc3c(c2)OCCO3)n2c1CCCC2
-1

Could you check what this test reported for C=CCn1c(SCC(=O)Nc2ccc(/C(C)=N\O)cc2)nnc1-c1cc(-c2ccccc2)nc2ccccc12 ?
1

Given Fc1ccc(-c2ccnc3nc(-c4ccncc4)nn23)cc1 , state the outcome it received in this test.
-1

Per the records of this test, what outcome belongs to COc1ccc(Nc2ncccc2C(=O)NCc2cn(Cc3cc(OC)cc(OC)c3)nn2)cc1 ?
-1

Called result for CC(C)N1CCN(c2ccncc2S(=O)(=O)N2CCN(C)CC2)CC1
-1

Write down the call the test reported for this molecule. Item: Cc1ccc(NC(=O)Cn2nncc2CN2C(=O)CSC2=O)cc1C
-1

Call for entry C=C1NC(=O)C(C(C)CC)NC(=O)C2CSCC(NC(=O)CCC(=O)O)C(=O)NC(Cc3ccccc3)C(=O)NC(C)C(=O)NC(CC(C)CC)C(=O)NC(C(=O)NC(Cc3ccccc3)C(=O)N3CCCC3C(=O)N2)C(C)OC(=O)C(CO)NC(=O)C(C(O)COC)N(C)C(=O)C(C(C)C)NC(=O)C(CC(C)CC)NC1=O (centres undefined) :
-1

Can you look up the reported call for CC1(C)C2CCC(O)(C(=O)O)C1C2 (centres undefined) for me?
-1

---

System: UACC-62 melanoma
Assay details: NCI-60 one-dose screen, 48 h
Experimental conditions: 10 µM unless noted
This is part of a sample that, as a whole, favours compounds with a hit. Of some 83,000 tested, about 20% had one in any assay. Active and inactive are the calls of the source. Rule for the calls: active = growth percent below 10; inactive = the rest.
Choose the fitting class; nothing outside yes (1) (active), no (0) (inactive) is accepted.

Dear all, I need the recorded test outcome for Cc1c(C)c(C)c([N+](=O)[O-])c([N+](=O)[O-])c1C , thank you.
no (0)

Could you kindly confirm the outcome this assay logged for CC(=O)OC1Oc2cc(C)c(C)cc2-c2oc(=O)c(-c3ccc(F)cc3)cc21 (stereo unspecified) ?
no (0)

Tell me the recorded outcome of this test for Clc1ncnc2scc(C3COc4ccccc4O3)c12 (stereo unspecified) .
no (0)

Which outcome did this test record for the molecule O=C(/C=C/c1ccccc1)C(Br)C(Br)c1ccccc1 (stereo unspecified) ?
yes (1)

For this molecule, state the assay outcome: COc1ccc(/C=C/C(=O)c2ccc(NC(=O)CSc3nnc(-c4ccc(OC)cc4)n3-c3ccccc3)cc2)cc1
no (0)

Which result was noted for this molecule in the test: Cc1ccc2cc3c(NC(=O)c4cccnc4)nn(C)c3nc2c1
no (0)

Recorded call for C#CC[C@@H]1C[C@]2(C)[C@H]3CC[C@@H]4[C@H]5C(C(=C)C)CC[C@]5(C(=O)NCCCN5CCN(CCCN)CC5)CC[C@@]4(C)[C@]3(C)CC[C@H]2C(C)(C)[C@H]1OC(C)=O (stereo partly specified) ?
yes (1)

In this assay, the call recorded for N#CC1=C(N)Oc2nc[nH]c(=O)c2C1c1cccs1 (stereo unspecified) was what?
no (0)

# outcome recorded in this test, key = CCOC(=O)C(Nc1ccccc1)C(=O)OCC
no (0)

For this molecule, state the assay outcome: CC1=NN(c2cccc(S(N)(=O)=O)c2)C(=O)C1
no (0)

Which result was noted for this molecule in the test: Cc1cccc(C(=O)O)n1
no (0)
